test: Clearance in Sprague-Dawley rat at 1 mg/kg, iv and measured upto 24 hrs by LC-MS analysis; type: ADME, organism-based; details: in vivo
measurement label: clearance (mL/min/kg)
Give just the numeric value; mL/min/kg need not be written.

Please review the entries below; each comes with its answer.
[[record]]
smiles_data = "COc1ccc(C(=O)N2Cc3c(N4CCOC[C@H]4C)nc(-c4cccc5[nH]ccc45)nc3C2(C)C)cc1"
test_value = 11.3

[[record]]
smiles_data = "C[C@@H]1COCCN1c1nc(-c2cccc3[nH]ccc23)nc2c1CN(C(=O)c1cccc(S(C)(=O)=O)c1)C2(C)C"
test_value = 14.2

[[record]]
smiles_data = "COc1cccc(C(=O)N2Cc3c(N4CCOC[C@H]4C)nc(-c4cccc5[nH]ccc45)nc3C2(C)C)c1"
test_value = 20.1


# input What does the record list as clearance for `C[C@@H]1COCCN1c1nc(-c2cccc3[nH]ccc23)nc2c1CN(C(=O)c1ccc3c(c1)OCO3)C2(C)C` ?
# output 5.97

# input What does the record list as clearance for `C[C@@H]1COCCN1c1nc(-c2cccc3[nH]ccc23)nc2c1CN(C(=O)c1ccc(S(C)(=O)=O)cc1)C2(C)C` ?
# output 26

---

test: MRT (0 to infinity) in Sprague-Dawley rat at 1 mg/kg, iv and measured upto 24 hrs by LC-MS analysis; assay type: ADME, organism-based; details: in vivo
Lab note: compare MRT inf with 2 h, writing Criterion met if less and Criterion not met if equal or more.

[[record]]
smiles_data = "C[C@@H]1COCCN1c1nc(-c2cccc3[nH]ccc23)nc2c1CN(C(=O)c1cccc(S(C)(=O)=O)c1)C2(C)C"
class_assignment = "Criterion met"

[[record]]
smiles_data = "COc1cccc(C(=O)N2Cc3c(N4CCOC[C@H]4C)nc(-c4cccc5[nH]ccc45)nc3C2(C)C)c1"
class_assignment = "Criterion met"

[[record]]
smiles_data = "COc1ccc(C(=O)N2Cc3c(N4CCOC[C@H]4C)nc(-c4cccc5[nH]ccc45)nc3C2(C)C)cc1"
class_assignment = "Criterion not met"


# input # TODO verify MRT inf < 2 h strictly for this compound: `C[C@@H]1COCCN1c1nc(-c2cccc3[nH]ccc23)nc2c1CN(C(=O)c1ccc(S(C)(=O)=O)cc1)C2(C)C`
# output Criterion not met

# input # TODO verify MRT inf < 2 h strictly for this compound: `C[C@@H]1COCCN1c1nc(-c2cccc3[nH]ccc23)nc2c1CN(C(=O)c1ccc3c(c1)OCO3)C2(C)C`
# output Criterion not met

---

Protein target, amino acids: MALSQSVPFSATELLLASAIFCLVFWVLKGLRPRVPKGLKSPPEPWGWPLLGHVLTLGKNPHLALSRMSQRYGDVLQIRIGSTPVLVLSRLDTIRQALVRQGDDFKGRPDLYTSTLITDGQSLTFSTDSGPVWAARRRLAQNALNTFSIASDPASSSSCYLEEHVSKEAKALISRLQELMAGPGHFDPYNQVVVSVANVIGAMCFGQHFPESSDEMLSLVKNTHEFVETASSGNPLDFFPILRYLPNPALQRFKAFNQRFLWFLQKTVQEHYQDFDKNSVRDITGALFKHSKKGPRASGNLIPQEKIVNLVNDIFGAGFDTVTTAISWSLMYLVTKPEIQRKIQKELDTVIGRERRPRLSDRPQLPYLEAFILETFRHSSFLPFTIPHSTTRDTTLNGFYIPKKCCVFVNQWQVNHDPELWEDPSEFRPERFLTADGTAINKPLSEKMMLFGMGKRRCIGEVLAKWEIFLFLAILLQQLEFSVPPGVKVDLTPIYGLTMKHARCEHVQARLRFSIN
measurement label: IC50

# input What does the record list as IC50 for `C[C@@H]1COCCN1c1nc(-c2cccc3[nH]ccc23)nc2c1CN(C(=O)c1ccc3c(c1)OCO3)C2(C)C` ?
# output > 10 µM

Numbers sourced from ChEMBL document CHEMBL5331073.
